system: Setaria faberi (SETFA); experiment: Pre-emergence biological efficacy, glasshouse pot test; assay type: in vivo; conditions: 312 h, pre-emergence, rate 1,000 g/ha, evaluated after 13 days (100=total damage to plant; 0=no damage), read-out: Percentage damage caused to weed species, SETFA
observed property: pest or weed control at 1000 g/ha (%)
Just the number please, in %, no unit attached.

Below are worked cases with known answers.
mol: COC(=O)c1nc(C2CC2)nc(N(C)Cc2cccc(Cl)c2)c1Cl
pest or weed control at 1000 g/ha, %: 10

mol: COC(=O)c1nc(-c2ccc(C(F)(F)F)cc2C(F)(F)F)nc(NCc2ccco2)c1Cl
pest or weed control at 1000 g/ha, %: 10

mol: COC(=O)c1nc(C2CC2)nc(N(C)Cc2cccc(OC)c2)c1Cl
pest or weed control at 1000 g/ha, %: 0

Next, consider the following compound.
query: Which measured pest or weed control at 1000 g/ha value corresponds to CCN(Cc1cccc(F)c1)c1nc(C2CC2)nc(C(=O)OC)c1Cl ?
result: 30

----------
system: Alopecurus myosuroides (ALOMY); assay: Post-emergence biological efficacy, glasshouse pot test; format: in vivo; settings: 312 h, Rate 1,000 g/ha, post-emergence spray, evaluated after 13 days (100=total damage to plant; 0=no damage to plant), read-out: Percentage damage caused to weed species, post-emergence, ALOMY
Please enter True where pest or weed control at 1000 g/ha is greater than or equal to 10%, and False where it is lower.

Past entries and their recorded results:
compound: COC(=O)c1nc(-c2cc(Cl)c(Cl)cc2Cl)nc(NCc2ccco2)c1Cl [Compound 228-48]
category label: True

compound: COC(=O)c1nc(-c2ccc(Cl)c(F)c2F)nc(NCc2ccco2)c1Cl [Compound 225-48]
category label: True

compound: O=C(OCc1ccccc1)c1nc(C2CC2)nc(NCc2ccco2)c1Cl [Compound 200-125]
category label: True

compound: COC(=O)c1nc(C2CC2)nc(N(C/C=C/c2ccccc2OC)C(C)C)c1Cl [Compound 146-255]
category label: True

compound: COC(=O)c1nc(C2CC2)nc(N(CCO)Cc2cccnc2)c1Cl [Compound 157-156]
category label: False

compound: CCCN(Cc1ccccc1F)c1nc(C2CC2)nc(C(=O)OC)c1Cl [Compound 145-64]
category label: False

compound: COC(=O)c1nc(-c2ccc(C)c(F)c2)nc(NCc2ccco2)c1Cl [Compound 240-48]
category label: False

compound: C=Cc1c(NCc2ccco2)nc(-c2ccc(Cl)cc2)nc1C(=O)OC [Compound 67-125]
category label: True

query: Please indicate if the recorded pest or weed control at 1000 g/ha for COC(=O)c1nc(-c2ccc(OC)c(F)c2)nc(NCc2ccco2)c1Cl [Compound 253-48] meets or exceeds 10%.
result: False

query: Please indicate if the recorded pest or weed control at 1000 g/ha for CCOC(=O)c1nc(C2CC2)nc(NCc2ccccc2)c1Cl [Compound 7-60] meets or exceeds 10%.
result: True

query: Please indicate if the recorded pest or weed control at 1000 g/ha for COc1c(Cl)ccc(-c2nc(NCc3ccco3)c(Cl)c(C(=O)O)n2)c1F [Compound 109-125] meets or exceeds 10%.
result: True

query: Please indicate if the recorded pest or weed control at 1000 g/ha for COC(=O)c1nc(-c2ccc(Cl)cc2)nc(NCc2ccccc2)c1Cl [Compound 40-60] meets or exceeds 10%.
result: False

query: Please indicate if the recorded pest or weed control at 1000 g/ha for NC(=O)c1nc(C2CC2)nc(NCc2ccco2)c1Cl [Compound 201-125] meets or exceeds 10%.
result: True

query: Please indicate if the recorded pest or weed control at 1000 g/ha for COC(=O)c1nc(-c2ccc(C)c(C)c2)nc(NCc2ccco2)c1Cl [Compound 255-48] meets or exceeds 10%.
result: False

----------
tested on: Setaria faberi (SETFA); experiment: Pre-emergence biological efficacy, glasshouse pot test; assay type: in vivo; details: 312 h, pre-emergence, rate 1,000 g/ha, evaluated after 13 days (100=total damage to plant; 0=no damage), read-out: Percentage damage caused to weed species, SETFA
observed property: pest or weed control at 1000 g/ha
Hi, when you answer, please include the unit after the number. Thanks!

Below are worked cases with known answers.
compound: CCN(Cc1ccc(OC)c(OC)c1)c1nc(C2CC2)nc(C(=O)OC)c1Cl
pest or weed control at 1000 g/ha: 0%
//
compound: COC(=O)c1nc(C2CC2)nc(N(C)CCc2ccccc2)c1Cl
pest or weed control at 1000 g/ha: 0%
//
compound: COC(=O)c1nc(C2CC2)nc(N(C)CC(O)c2ccccc2)c1Cl (centres unmarked)
pest or weed control at 1000 g/ha: 10%
//
compound: COc1c(Cl)ccc(-c2nc(NCC3CC3)c(Cl)c(C(=O)O)n2)c1F
pest or weed control at 1000 g/ha: 60%
//
compound: COC(=O)c1nc(C2CC2)nc(N(C)Cc2cccc(F)c2)c1Cl
pest or weed control at 1000 g/ha: 20%

query: Which measured pest or weed control at 1000 g/ha value corresponds to COC(=O)c1nc(-c2ccc(F)c(Cl)c2)nc(NCc2ccco2)c1Cl ?
result: 30%

----------
Entries and their pest or weed control at 1000 g/ha
test system: Amaranthus retoflexus (AMARE); test: Pre-emergence biological efficacy, glasshouse pot test; assay type: in vivo; settings: Amaranthus retroflexus, 312 h; pre-emergence, 1,000 g/ha, evaluated after 13 days (100=total damage; 0=no damage); read-out: Percentage damage AMARE
Just the number please, in %, no unit attached.

Below are worked cases with known answers.
compound: COC(=O)c1nc(C2CC2)nc(NCc2cc(F)cc(F)c2)c1Cl [Compound 4-100]
pest or weed control at 1000 g/ha [%]: 70
//
compound: COC(=O)c1nc(C2CC2)nc(NCc2ncccc2C)c1Cl [Compound 4-153]
pest or weed control at 1000 g/ha [%]: 100
//
compound: COC(=O)c1nc(C2CC2)nc(N[C@H](c2ccccc2)[C@@H](O)c2ccccc2)c1Cl [4-280 (1R,2S)]
pest or weed control at 1000 g/ha [%]: 60
//
compound: COC(=O)c1nc(C2CC2)nc(NCc2ccccc2C)c1Cl [Compound 4-71]
pest or weed control at 1000 g/ha [%]: 90
//
compound: COC(=O)c1nc(C2CC2)nc(NCc2c(Cl)cccc2Cl)c1Cl [Compound 4-104]
pest or weed control at 1000 g/ha [%]: 40

Next, consider the following compound.
query: API: value(readout= pest or weed control at 1000 g/ha, system= Amaranthus retoflexus (AMARE), query= COC(=O)c1nc(C2CC2)nc(NCc2ccccc2C(F)(F)F)c1Cl [Compound 4-75] )
result: 50

----------
tested on: Alopecurus myosuroides (ALOMY); assay: Post-emergence biological efficacy, glasshouse pot test; assay type: in vivo; details: 312 h, post-emergence, 1,000 g/ha, evaluated after 13 days (100=total damage; 0=no damage), read-out: Percentage damage caused to weed species, ALOMY
Entries and their pest or weed control at 1000 g/ha
Just the number please, in %, no unit attached.

Below are worked cases with known answers.
molecule: COC(=O)c1nc(C2CC2)nc(NC(C)Cc2c[nH]c3ccccc23)c1Cl (stereo not drawn)
observed property: pest or weed control at 1000 g/ha
data value: 10
//
molecule: COC(=O)c1nc(C2CC2)nc(N[C@@H](Cc2ccc(OC(C)(C)C)cc2)C(=O)OC)c1Cl [4-288 (S)]
observed property: pest or weed control at 1000 g/ha
data value: 10
//
molecule: COC(=O)c1ccc(CNc2nc(C3CC3)nc(C(=O)OC)c2Cl)cc1
observed property: pest or weed control at 1000 g/ha
data value: 10
//
molecule: COC(=O)c1nc(C2CC2)nc(NC(C)CCc2ccccc2)c1Cl (stereo not drawn)
observed property: pest or weed control at 1000 g/ha
data value: 10
//
molecule: COC(=O)c1nc(C2CC2)nc(NC(CO)C2CCOCC2)c1Cl (stereo not drawn)
observed property: pest or weed control at 1000 g/ha
data value: 10
//
molecule: COC(=O)c1nc(C2CC2)nc(NC2(CCc3ccccc3)CC2)c1Cl
observed property: pest or weed control at 1000 g/ha
data value: 20

Next, consider the following molecule.
query: Which measured pest or weed control at 1000 g/ha value corresponds to COC(=O)c1nc(C2CC2)nc(NCC2CCCO2)c1Cl (stereo not drawn) ?
result: 20

----------
Entries and their pest or weed control at 1000 g/ha
system: Solanum nigrum (SOLNI); assay: Pre-emergence biological efficacy, glasshouse pot test; assay type: in vivo; settings: 312 h, pre-emergence, rate 1,000 g/ha, evaluated after 13 days (100=total damage to plant; 0=no damage), read-out: Percentage damage caused to weed species, SOLNI
Just the number please, in %, no unit attached.

Below are worked cases with known answers.
mol: COC(=O)c1nc(C2CC2)nc(N(C)Cc2ccncc2)c1Cl
pest or weed control at 1000 g/ha, %: 40
--
mol: COC(=O)c1nc(C2CC2)nc(N(C)Cc2c(Cl)cccc2Cl)c1Cl
pest or weed control at 1000 g/ha, %: 10
--
mol: C=Cc1c(NCc2ccco2)nc(C2CC2)nc1C(=O)OC
pest or weed control at 1000 g/ha, %: 80
--
mol: COC(=O)c1nc(-c2ccc(C)c(Cl)c2)nc(NCc2ccco2)c1Cl
pest or weed control at 1000 g/ha, %: 0

query: API: value(readout= pest or weed control at 1000 g/ha, system= Solanum nigrum (SOLNI), query= COC(=O)c1nc(C2CC2)nc(N(C/C=C/c2ccccc2OC)C(C)C)c1Cl )
result: 10

query: API: value(readout= pest or weed control at 1000 g/ha, system= Solanum nigrum (SOLNI), query= COC(=O)c1nc(C2CC2)nc(N(C)Cc2ccc(F)cc2)c1Cl )
result: 60

query: API: value(readout= pest or weed control at 1000 g/ha, system= Solanum nigrum (SOLNI), query= COC(=O)c1nc(-c2ccc(F)c(Cl)c2)nc(NCc2ccco2)c1Cl )
result: 10

query: API: value(readout= pest or weed control at 1000 g/ha, system= Solanum nigrum (SOLNI), query= COC(=O)c1nc(C2CC2)nc(N(C)Cc2ccc(C)o2)c1Cl )
result: 90

query: API: value(readout= pest or weed control at 1000 g/ha, system= Solanum nigrum (SOLNI), query= COC(=O)c1nc(C2CC2)nc(N(C)CC2OCCO2)c1Cl )
result: 0

Values from patent US20110086759A1
